- PROCEDURE DETAILS: Clearance in mouse microsome measured per mg of protein
- Assay type: ADME, Liver
- CONDITION: microsomes
VALUE KIND: microsomal CLint (µL/min/mg)
Give the value in µL/min/mg but do not write µL/min/mg after it.

# ENTRY SMILES, microsomal CLint (µL/min/mg)
measured = [
    ("Cc1cc(Nc2nn(-c3ccccc3)c(=O)c3ccccc23)n[nH]1", 15.7),
]

Next, consider the following compound.
**Q:** Returns the measured microsomal CLint for the input compound. Input: Cc1cc(Nc2nn(Cc3ccccc3)c(=O)c3ccccc23)n[nH]1
**A:** 28

====

- ASSAYED SYSTEM: Cytochrome P450 2C9 (Homo sapiens)
- Sequence (P11712 whole entry): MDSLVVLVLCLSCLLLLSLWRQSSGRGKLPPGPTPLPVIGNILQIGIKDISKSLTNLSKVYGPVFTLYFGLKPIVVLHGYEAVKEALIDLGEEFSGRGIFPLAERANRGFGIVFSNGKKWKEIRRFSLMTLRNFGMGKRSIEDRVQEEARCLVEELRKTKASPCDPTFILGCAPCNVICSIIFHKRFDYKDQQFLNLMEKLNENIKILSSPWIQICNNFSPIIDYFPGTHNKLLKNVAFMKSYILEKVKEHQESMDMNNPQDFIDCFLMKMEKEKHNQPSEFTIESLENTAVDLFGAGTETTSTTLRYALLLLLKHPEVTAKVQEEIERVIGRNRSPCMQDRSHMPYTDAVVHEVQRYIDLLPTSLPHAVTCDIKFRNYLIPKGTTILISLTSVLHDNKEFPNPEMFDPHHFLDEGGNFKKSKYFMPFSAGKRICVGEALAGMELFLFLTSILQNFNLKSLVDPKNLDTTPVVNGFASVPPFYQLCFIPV
- PROCEDURE DETAILS: Inhibition of CYP2C9
- Assay type: ADME
Reported IC50 values follow for various molecules

Sample answers from the record:
# ENTRY SMILES, ASSAYED SYSTEM, IC50
rows = [
    ("Cc1cc(Nc2nn(Cc3ccccc3)c(=O)c3ccccc23)n[nH]1", "Cytochrome P450 2C9 (Homo sapiens)", "42 µM"),
    ("Cc1cc(Nc2nn(-c3ccccc3)c(=O)c3ccccc23)n[nH]1", "Cytochrome P450 2C9 (Homo sapiens)", "> 50 µM"),
]

**Q:** So what does the record say about IC50 for Cc1cc(Nc2nn(C(C)C)c(=O)c3ccccc23)n[nH]1 ?
**A:** > 50 µM

====

What follows is a collection of IC50 values obtained with Aurora kinase B (Homo sapiens, UniProt Q96GD4).
Sequence (Q96GD4 whole entry): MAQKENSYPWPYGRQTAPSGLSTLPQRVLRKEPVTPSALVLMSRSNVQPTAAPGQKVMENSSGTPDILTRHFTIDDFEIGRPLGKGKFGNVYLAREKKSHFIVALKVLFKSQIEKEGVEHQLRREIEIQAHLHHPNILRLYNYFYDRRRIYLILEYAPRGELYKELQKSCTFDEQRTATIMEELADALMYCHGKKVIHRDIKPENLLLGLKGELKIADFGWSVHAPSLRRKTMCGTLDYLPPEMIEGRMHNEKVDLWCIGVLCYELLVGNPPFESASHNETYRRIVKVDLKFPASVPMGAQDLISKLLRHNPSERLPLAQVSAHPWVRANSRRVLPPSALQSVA
Respond with the bare value in µM.

Sample records with IC50:
# ENTRY SMILES, OUTPUT UNIT, IC50
data = [
    ("Cc1cc(Nc2nn(C)c(=O)c3ccccc23)n[nH]1", "µM", 17),
    ("CC(=O)Nc1ccc(Cn2nc(Nc3cc(C)[nH]n3)c3ccccc3c2=O)cc1", "µM", 15),
    ("Cc1cc(Nc2nn(Cc3ccc([N+](=O)[O-])cc3)c(=O)c3ccccc23)n[nH]1", "µM", 0.93),
    ("Cc1cc(Nc2nn(Cc3csc(C)n3)c(=O)c3ccccc23)n[nH]1", "µM", 24),
]

Moving on to the next compound.
**Q:** Given the entry Cc1cc(Nc2nn(CC(F)(F)F)c(=O)c3ccccc23)n[nH]1 , what IC50 was observed with Aurora kinase B (Homo sapiens, UniProt Q96GD4)?
**A:** 15

====

- PROCEDURE DETAILS: Clearance in rat hepatocytes measured per 10^6 cells
- Format: ADME, cell-based, Liver, Hepatocyte
A collection of compounds and their measured hepatocyte CLint
Give just the numeric value; µL/min/1e6 cells need not be written.

# ENTRY SMILES, VALUE KIND, RESULT VALUE
rows = [
    ("Cc1cc(Nc2nn(Cc3ccccc3)c(=O)c3ccccc23)n[nH]1", "hepatocyte CLint", 2.4),
]

Attention now turns to another entry.
**Q:** Name the reported hepatocyte CLint value associated with the compound Cc1cc(Nc2nn(-c3ccccc3)c(=O)c3ccccc23)n[nH]1
**A:** 2.3

====

- PROCEDURE DETAILS: Aqueous solubility of the compound
- Assay type: physicochemical
- CONDITION: buffer
VALUE KIND: solubility (µg/mL)
Numeric only. Scale: µg/mL

Examples with their reported solubility follow.
# ENTRY SMILES, OUTPUT UNIT, RESULT VALUE
rows = [
    ("Cc1cc(Nc2nn(Cc3ccccc3)c(=O)c3ccccc23)n[nH]1", "µg/mL", 1.9),
    ("Cc1cc(Nc2nn(C(C)C)c(=O)c3ccccc23)n[nH]1", "µg/mL", 7),
]

Attention now turns to another entry.
**Q:** Suppose we examine the molecule Cc1cc(Nc2nn(-c3ccccc3)c(=O)c3ccccc23)n[nH]1 ; what solubility value has been reported?
**A:** 1.2
